The reported measurements were obtained from the Human Domainome abundance scans (Beltran et al. 2025).

B1: Storkhead-box protein 2, residues 64 to 141; numbered along this chain, Q9P2F5 (parent)
chain: SPISQSQFIPLGEILCLAISAMNSARKPVTQEALMEHLTTCFPGVPTPSQEILRHTLNTLVRERKIYPTPDGYFIVTP

- Variants of: B1
- Test details: abundance fitness (aPCA) (normalised: wild type 0, dead -1); higher = more abundant; growth selection in yeast, the domain comes from the species named
- Run conditions: Homo sapiens
Decide using abundance fitness: a value greater than or equal to -0.04 is MET, a smaller one is NOT MET.

Solved entries (count: 6):
SPISQSQFIPLGEILCLAISAMNSARKPVTQEALMEHLTTCFPGVPTPSQEILRHTLNTLVREHKIYPTPDGYFIVTP = MET
SPISQSQFIPLGEILCLAISAMNSARKPVTQEALMEHLTTCFPGVFTPSQEILRHTLNTLVRERKIYPTPDGYFIVTP = NOT MET
SPISQSQFIPLGEILCLAISAMNSARKPVTQEALMEHLTTCFPGVPTPSQEILRHTLNTLVRERKIYPTPDGYYIVTP = NOT MET
SPISQSQFIHLGEILCLAISAMNSARKPVTQEALMEHLTTCFPGVPTPSQEILRHTLNTLVRERKIYPTPDGYFIVTP = NOT MET
SPISQSQFIPLGEILCLAISAMNSARKPVTQEALMEHLTTCFPGVPTPSQEILRHTLNTLVGERKIYPTPDGYFIVTP = MET
SPISQSQFKPLGEILCLAISAMNSARKPVTQEALMEHLTTCFPGVPTPSQEILRHTLNTLVRERKIYPTPDGYFIVTP = MET

-- ask Please tell me: is the variant SPISQSQFIPLGEILCLAISAMNSARKPVTQEALMEHLTTCFPGVPPPSQEILRHTLNTLVRERKIYPTPDGYFIVTP at or over -0.04 in terms of abundance fitness?
-- reply NOT MET

-- ask And the next one, SPISQSQFIPLGEILCLAISAMNSARKPVTQEALMEHLTTCFPGVPTPSYEILRHTLNTLVRERKIYPTPDGYFIVTP ?
-- reply MET

-- ask Cool, now SPISQSQFIPLGEILCLAISAMNSARKPVTQEDLMEHLTTCFPGVPTPSQEILRHTLNTLVRERKIYPTPDGYFIVTP
-- reply NOT MET

-- ask What would you report for SPISQSQFIPLGEILCLVISAMNSARKPVTQEALMEHLTTCFPGVPTPSQEILRHTLNTLVRERKIYPTPDGYFIVTP ?
-- reply NOT MET

-- ask Follow-up entry: SPISQSQFIPLGEILCLAISAMNSARKPVTQEALMEHLTTCFPGVPTPSQEILPHTLNTLVRERKIYPTPDGYFIVTP
-- reply NOT MET

-- ask What do you get for SPISQSQFIPLGEILCLAISAMNSARKRVTQEALMEHLTTCFPGVPTPSQEILRHTLNTLVRERKIYPTPDGYFIVTP ?
-- reply NOT MET

-- ask Thanks! And SPISQSQFIPLGEILCLAISAMNSARKPVTQEALMEHLTTCFPGVPTPSQEILRHTLNTLVRERDIYPTPDGYFIVTP ?
-- reply NOT MET

-- ask Request: SPISQSQFIPLGEILCLAIKAMNSARKPVTQEALMEHLTTCFPGVPTPSQEILRHTLNTLVRERKIYPTPDGYFIVTP
-- reply MET

-- ask How about this variant: SPISQSQFIPLGEILCLAISAMNSARKPVTQEALMEHLTTCFPGVPTPSQEILRHTLNTLVYERKIYPTPDGYFIVTP
-- reply MET

-- ask Moving on to the next variant: SPISQSQFIPFGEILCLAISAMNSARKPVTQEALMEHLTTCFPGVPTPSQEILRHTLNTLVRERKIYPTPDGYFIVTP
-- reply MET

-- ask Please give the result for SPISQSQFIPLGEILCLAISAMNSARKPVTQEHLMEHLTTCFPGVPTPSQEILRHTLNTLVRERKIYPTPDGYFIVTP too.
-- reply MET
